target: RSV postfusion F (postF), F deltaFP (respiratory syncytial virus, UniProt P03420 26-513); test: BLI, IgG on sensor, 100 nM antigen
Measured quantity: Kd (nM)
# output: bare number, implied unit nM

Sure, the documented Kd for ADI-41393 (antibody, V domains shown, IgG1; also called Ab 687) VH: QVQLVQSGAEVKKPGESLKISCKGSGYSFTSYWIGWVRQMPGKGLEWMGIIYPGDSDTRYSPSFQGQVTISADKSTSTAYLQWSSLKASDSAMYYCARSEFSSSFDFWGQGTLVTVSS VL: NFMLTQPHSVSESPGKTVTISCTGSSGSIASYYVQWYQLRPGSAPTTVIYEDNQRLSGVPDRFSGSIDSSSNSASLTISGLKTEDEADYYCQSYRSGIPWVFGGGTKLTVL is 0.247

So for ADI-41385 (antibody, V domains shown, IgG1; also called Ab 681) VH: EVQLVESGGGVVQPGRSLRLSCAASGFTFSSYGMHWVRQAPGKGLEWVAVIWYDGNNEKYADSVKGRFTISRDNSKNTLYLQMNSLRAEDTAVYYCARPTQKYSSSWYWEDSIDYWGQGTLVTVSS VL: QSVLTQPPSVFGAPGQRVTISCTGSSSNIGAGYPVHWYQQLPGTAPKLLIYGNSNRPSGVPDRFSGSKSGTSASLAITGLQAEDEADYYCQSYDSSLSGGVVFGGGTKLTVL , the logged Kd turned out to be 0.601

Form: binder = ADI-41405 (antibody, V domains shown, IgG1) VH: EVQLLESGGGLVQPGGSLRLSCAASGFSFSIYSMNWVRQAPGKGLEWISYITSTGSPTYYADSVKGRFTISRDNAKNSLYLQMSSLRAEDTAVYYCVTYCSSSSCPAEFDYWGQGTLVTVSS VL: EIVLTQSPATLSLSPGERATLSCRASQSVNSYLAWYQQKPGQAPRLLIYDASNRATGIPARFSGSGSGTDFTLTISSLEAEDFAVYYCQHRNNWPALTFGGGTKVEIK ; Kd = 0.458

Data origin, for the record: patent US20260258115A1
